Measured IC50, listed per entry.
- Test system: Proteasome
- test.method.notes: Inhibition of chymotrypsin-like activity of 20S proteasome
- Assay type: subcellular

INSERT INTO assay_data (compound, test_value) VALUES
  ('COc1ccc2c(c1)C(CC(=O)N[C@H](CC(C)C)C(=O)N[C@H](CC(C)C)C(N)=O)CC2=O (stereo partly drawn)', '2.2 µM'),
  ('COc1ccc2c(c1)C(CC(=O)N[C@@H](CC(C)C)C(=O)N[C@H](CC(C)C)C(=O)NCc1ccccc1)CC2=O (stereo partly drawn)', '0.93 µM'),
  ('COc1ccc2c(c1)C(CC(=O)N[C@@H](CC(C)C)C(=O)N[C@H](CC(C)C)C(=O)NCCc1ccccc1)CC2=O (stereo partly drawn)', '> 18 µM'),
  ('COc1ccc2c(c1)C(CC(=O)N[C@@H](C(=O)N[C@H](CC(C)C)C(N)=O)C(C)C)CC2=O (stereo partly drawn)', '> 20 µM'),
  ('COc1ccc2c(c1)C(CC(=O)N[C@@H](CC(C)C)C(=O)N[C@H](CC(C)C)C(=O)N1CCCCC1)CC2=O (stereo partly drawn)', '> 20 µM'),
  ('COc1ccc2c(c1)C(CC(=O)N[C@@H](CC(C)C)C(=O)N[C@H](CC(C)C)C(=O)N1CCCC1)CC2=O (stereo partly drawn)', '> 20 µM'),
  ('COc1ccc2c(c1)C(CC(=O)N[C@H](CC(C)C)C(=O)N[C@H](CC(C)C)C(=O)NCC(N)=O)CC2=O (stereo partly drawn)', '> 20 µM');

Next, consider the following compound.
The recorded IC50 for COc1ccc2c(c1)C(CC(=O)N[C@@H](CC(C)C)C(=O)N[C@H](CC(C)C)C(N)=O)CC2=O (stereo partly drawn) is > 20 µM

* * *

- System: Proteasome
- test.method.notes: Inhibition of chymotrypsin-like activity of 20S proteasome
- Assay type: subcellular
Measured IC50, listed per entry.

For orientation, consider the following solved cases.
INSERT INTO measurements (molecule, experimental_target, test_value) VALUES
  ('CCC[C@H](NC(=O)CC1CC(=O)c2ccc(OC)cc21)C(=O)N[C@H](CC(C)C)C(=O)NCC(N)=O (some centres not stated)', 'Proteasome', '> 20 µM'),
  ('COc1ccc2c(c1)C(CC(=O)N[C@@H](CC(C)C)C(=O)N[C@H](CC(C)C)C(=O)NCc1ccccc1-c1ccccc1)CC2=O (some centres not stated)', 'Proteasome', '> 16 µM'),
  ('COc1ccc2c(c1)C(CC(=O)N[C@H](Cc1ccccc1)C(=O)N[C@H](CC(C)C)C(N)=O)CC2=O (some centres not stated)', 'Proteasome', '> 20 µM'),
  ('COc1ccc2c(c1)C(CC(=O)N[C@H](CC(C)C)C(=O)N[C@@H](CC(C)C)C(N)=O)CC2=O (some centres not stated)', 'Proteasome', '> 20 µM'),
  ('COc1ccc2c(c1)C(CC(=O)N[C@@H](CC(C)C)C(=O)N[C@@H](CC(C)C)C(N)=O)CC2=O (some centres not stated)', 'Proteasome', '> 20 µM'),
  ('COc1ccc2c(c1)C(CC(=O)N[C@@H](CC(C)C)C(=O)N[C@H](CC(C)C)C(=O)Nc1ccccc1)CC2=O (some centres not stated)', 'Proteasome', '> 19 µM');

Next, consider the following molecule.
The recorded IC50 for COc1ccc2c(c1)C(CC(=O)N[C@@H](CC(C)C)C(=O)N[C@@H](CC(C)C)C(=O)NCC(N)=O)CC2=O (some centres not stated) is > 20 µM
